test: Inhibition of SARS-CoV-2 MPro Q189E mutant; set-up: species or system Severe acute respiratory syndrome coronavirus 2
measure: pIC50
Please keep in mind that pIC50 is minus log10 of the molar concentration; only the number is needed.

Some solved cases for reference:
{"molecularString": "C=CC(=O)[C@H](Cc1ccccc1)NC(=O)[C@H](CC(C)C)NC(=O)COc1ccc(Cl)cc1Cl", "pIC50": 6.15}
{"molecularString": "C=CC(=O)[C@H](Cc1cccc(Cl)c1)NC(=O)[C@H](CC(C)C)NC(=O)CSc1ccccc1", "pIC50": 6.68}

Now examine the next entry.
Q: Consider the molecule shown here: CC(C)(C)[C@H](NC(=O)C(F)(F)F)C(=O)N1C[C@H]2[C@@H]([C@H]1C(=O)N[C@H](C#N)C[C@@H]1CCNC1=O)C2(C)C What is its recorded pIC50?
Ans: 6.70
